Assay info: glutamate transport activators, MN-1 cells, MN-1 cell line (AID 1612);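 further: 0% = mean of DMSO vehicle wells on each plate; positive means more glutamate uptake than control and negative means less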
Assay conditions: MN-1 motor neuron cells, stronger effect = higher value
# if value of glutamate uptake change reaches 10%, tag Criterion met; if it stays below, tag Criterion not met

Field: example entries. Status: answers known.
Compound | Class label
CN(C)CCC(c1ccccc1)c1ccccn1 (configuration not stated) | Criterion met
Nc1cc(-c2ccncc2)c[nH]c1=O | Criterion met
Fc1ccc(C(c2ccc(F)cc2)N2CCN(C/C=C/c3ccccc3)CC2)cc1 | Criterion not met
CC(=O)Nc1ccc(O)cc1 | Criterion not met
CCCN(CCC)C(=O)C(CCC(=O)O)NC(=O)c1ccccc1 (configuration not stated) | Criterion met

hey, is glutamate uptake change for this one >= 10%? "CC1(C)OC(=O)NC1=O"
Criterion met

hey, is glutamate uptake change for this one >= 10%? "COc1cc(NS(=O)(=O)c2ccc(N)cc2)nc(OC)n1"
Criterion not met

----------
Assay info: viability loss with induced miR-34 in A549 – imaging, A549 dox-inducible miR-34, nuclei and caspase counts, primary screen (AID 1347080)
Assay conditions: A549 miR-34 inducible, Hoechst nuclei count, 48 h; measured here: total cells with miR-34 induction; stronger effect = lower value
Hi! Just check whether cell count is below 10000. Below gives fulfilled, equal or above gives not fulfilled.

Field: example entries. Status: answers known.
Compound | Class label
CCN(CC)CCOC(=O)C(c1ccccc1)C1CCCCC1 (stereo unspecified) | fulfilled
CC(=O)NO | not fulfilled
CC[C@]12CCCN3CCc4c(n(c5ccccc45)[C@@](O)(C(=O)OC)C1)[C@@H]32 | fulfilled
COc1cc2c(Nc3ccc(Br)cc3F)ncnc2cc1OCC1CCN(C)CC1 | fulfilled
Nc1nc(=S)c2[nH]cnc2[nH]1 | fulfilled

Please state whether cell count is below 10000 for "Nc1ccc(C(=O)O)cc1"
not fulfilled

Please state whether cell count is below 10000 for "COc1cc(/C=C/C(=O)CC(=O)/C=C/c2ccc(O)c(OC)c2)ccc1O"
fulfilled

Please state whether cell count is below 10000 for "OC(CCN1CCCCC1)(c1ccccc1)c1ccccc1"
fulfilled

----------
Assay info: blockers of polyQ-driven CASP3 activation – cell-based (AID 1583)
Assay conditions: polyglutamine-induced caspase-3 activation, cell assay; stronger effect = higher value; concentration not given here
Recorded metric: inhibition (%)
Express your answer in %, writing the number without its unit.

Record excerpt, results attached:
Compound | Units | inhibition
Cc1cc(C)nc(NS(=O)(=O)c2ccc(N)cc2)n1 | % | 5.54
Nc1ccc(S(=O)(=O)Nc2nccs2)cc1 | % | 6.1
COc1ccc(CCN(C)CCCC(C#N)(c2ccc(OC)c(OC)c2)C(C)C)cc1OC (configuration not stated) | % | 15.1
CCCOc1ccc2nc(NC(=O)OC)[nH]c2c1 | % | 0.98
C=CCc1ccccc1OCC(O)CNC(C)C (configuration not stated) | % | 3.86
CC1=NN(c2ccccc2)C(=O)C1 | % | -19.6

Find the recorded inhibition belonging to "O=C(O)CCC(=O)Nc1ccc(S(=O)(=O)Nc2nccs2)cc1" and report it.
-5.43

----------
Test system: R275C/beta1
Assay info: BK channel mutant inhibitors and activators – cell-based, U2OS BacMam, thallium flux, beta subunits, selectivity assay, profiling panel (AID 1259406);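 further: initial slope of Thallos dye fluorescence rise after thallium is added; log ratio against the mean of 0.3% DMSO vehicle wells on the same plate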
Assay conditions: U2OS BacMam BK variants, at 30 µM
# if value of log fold change Tl+ flux reaches -0.003, tag 1; if it stays below, tag -1

Compound | Measured target | Class label
O=C(NCCN1CCOCC1)c1ccc(Cl)cc1 | R275C/beta1 | -1
CC(C)(O)c1ccccc1CC[C@@H](SCC1(CC(=O)O)CC1)c1cccc(/C=C/c2ccc3ccc(Cl)cc3n2)c1 | R275C/beta1 | 1
O=C(NCCO[N+](=O)[O-])c1cccnc1 | R275C/beta1 | -1

hey, is log fold change Tl+ flux for this one >= -0.003? "CCN1CCN(c2cc3c(cc2F)c(=O)c(C(=O)O)cn3C2CC2)CC1"
1

hey, is log fold change Tl+ flux for this one >= -0.003? CCN(CC)CC1CCCCN1CC(=O)N1c2ccccc2C(=O)Nc2cccnc21 (stereo unspecified)
1

hey, is log fold change Tl+ flux for this one >= -0.003? "C#C[C@]1(O)CC[C@H]2[C@@H]3CCc4cc(OC)ccc4[C@H]3CC[C@@]21C"
1

hey, is log fold change Tl+ flux for this one >= -0.003? CC(c1cc2ccccc2s1)N(O)C(N)=O (stereo unspecified)
1

hey, is log fold change Tl+ flux for this one >= -0.003? "CCCc1nc(C)c2c(=O)[nH]c(-c3cc(S(=O)(=O)N4CCN(CC)CC4)ccc3OCC)nn12"
1

hey, is log fold change Tl+ flux for this one >= -0.003? "NS(=O)(=O)c1cc(C(=O)O)c(NCc2ccco2)cc1Cl"
-1

hey, is log fold change Tl+ flux for this one >= -0.003? CC(N)C12CC3CC(CC(C3)C1)C2 (stereo unspecified)
-1

----------
Assay info: reduced SW480 viability measured with CellTiter-Glo, NPC library, primary (AID 1117343)
Assay conditions: CellTiter-Glo luminescence; at 20 µM (top of the series)
Calls of active or inactive are those of the source.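 Rule for the calls: active = compounds that lower viability of the colon cancer cells in the luminescence readout, with no numeric limit stated; inactive = the rest.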
Result category, one only: T (active), F (inactive)

Field: example entries. Status: answers known.
Compound | Class label
NC(=O)c1ncn([C@@H]2O[C@H](CO)[C@@H](O)[C@H]2O)c1O | F
CCCCCCOc1ccccc1C(N)=O | F
Oc1ccc(Cl)cc1Cc1cc(Cl)ccc1O | T

Hi, do you know how "O=C(O)c1ccccc1O" came out in this test?
F

----------
Assay info: blockers of polyQ-driven CASP3 activation – cell-based (AID 1583)
Assay conditions: polyglutamine-induced caspase-3 activation, cell assay; stronger effect = higher value; concentration not given here
Recorded metric: inhibition (%)
Express your answer in %, writing the number without its unit.

Record excerpt, results attached:
Molecule | inhibition, %
CN1C(C(=O)Nc2ccccn2)=C(O)c2sccc2S1(=O)=O | -15.4
Nc1nccs1 | 9.3
Cc1ccc(C(=O)C(C)CN2CCCCC2)cc1 (stereo not drawn) | -24.9
O=C(O)c1cccnc1Nc1cccc(C(F)(F)F)c1 | 18.6
COc1ccc2[nH]cc(CCNC(C)=O)c2c1 | -10

Find the recorded inhibition belonging to "Cc1nnc(NS(=O)(=O)c2ccc(N)cc2)s1" and report it.
18.6

Find the recorded inhibition belonging to "CN1CCC[C@@H]1CCO[C@](C)(c1ccccc1)c1ccc(Cl)cc1" and report it.
2.42

Find the recorded inhibition belonging to "C=CCc1ccc(O)c(OC)c1" and report it.
-5.5

Find the recorded inhibition belonging to O=C(OCC(O)CO)c1ccccc1Nc1ccnc2cc(Cl)ccc12 (stereo not drawn) and report it.
18.5

----------
Assay info: BT084 cell growth, single and combined drugs, ICGC_MB145, cisplatin and BGB IC40 combos (AID 1671461);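 further: cells exposed to drugs for 96 hours; 0% = vehicle DMSO and 100% = high DMSO full killing control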
Assay conditions: BT084 medulloblastoma cells, drug combinations, measured here: BGB IC40 combination 0.05 uM, at 0.05 µM, stronger effect = higher value
Recorded metric: inhibition (%)
Express your answer in %, writing the number without its unit.

Record excerpt, results attached:
Molecule | inhibition (%)
Nc1nc(=S)c2[nH]cnc2[nH]1 | 0.063
CCN1CCN(c2cc3c(cc2F)c(=O)c(C(=O)O)cn3C2CC2)CC1 | -13.2
NC(=O)NO | 10.1
C[C@H]1COc2c(C3(N)CC3)c(F)cc3c(=O)c(C(=O)O)cn1c23 | 22.3
O=c1oc2c(O)c(O)cc3c(=O)oc4c(O)c(O)cc1c4c23 | 1.07
Cc1oncc1C(=O)Nc1ccc(C(F)(F)F)cc1 | 32
O=C(O)P(=O)(O)O | 11.4
CC(N)C12CC3CC(CC(C3)C1)C2 (stereo unspecified) | 9.42

Find the recorded inhibition belonging to "O=NN(CCCl)C(=O)NCCCl" and report it.
22.3

Find the recorded inhibition belonging to "CCn1cc(C(=O)O)c(=O)c2cc3c(cc21)OCO3" and report it.
27.5

Find the recorded inhibition belonging to "CN(C)c1ccc(C(=C2C=CC(=[N+](C)C)C=C2)c2ccc(N(C)C)cc2)cc1" and report it.
-10.9

----------
Overview of reported viability decrease (inhibition) across a group of compounds:
Assay info: NPC library primary testing for decreased DLD-1 cell viability via CellTiter-Glo (AID 1117346)
Assay conditions: DLD-1 viability, CellTiter-Glo luminescence; at 20 µM (top of the series)
Express your answer in %, writing the number without its unit.

Record excerpt, results attached:
Compound | Recorded metric | Reported measurement
CCCCC(CC)CN1CN(CC(CC)CCCC)CC(C)(N)C1 (stereo unspecified) | viability decrease (inhibition) | 105
Clc1ccc2c(c1)CCc1cccnc1C2=C1CCNCC1 | viability decrease (inhibition) | 30
O=C1O[C@H](CO)[C@@H](O)[C@H](O)[C@H]1O | viability decrease (inhibition) | 20

Find the recorded viability decrease (inhibition) belonging to "CCN(CC)CCNc1ccc(CO)c2sc3ccccc3c(=O)c12" and report it.
35.6

Find the recorded viability decrease (inhibition) belonging to "COc1ncnc(NS(=O)(=O)c2ccc(N)cc2)c1OC" and report it.
-22.2

Find the recorded viability decrease (inhibition) belonging to CNCC(O)c1ccc(O)c(O)c1 (stereo unspecified) and report it.
17.7

Find the recorded viability decrease (inhibition) belonging to "Cn1c(=O)c2c(ncn2CCO)n(C)c1=O" and report it.
-21.2

Find the recorded viability decrease (inhibition) belonging to CC1(C)S[C@@H]2[C@H](NC(=O)C(C(=O)O)c3ccccc3)C(=O)N2[C@H]1C(=O)O (stereo partly specified) and report it.
-17.8
